Target: T1, human GITR-CHO (human, UniProt Q9Y5U5)
T1 construct: expressed on the surface of CHO cells, construct not described; also called human GITR expressed on the surface of CHO cells
T1 sequence (looked up): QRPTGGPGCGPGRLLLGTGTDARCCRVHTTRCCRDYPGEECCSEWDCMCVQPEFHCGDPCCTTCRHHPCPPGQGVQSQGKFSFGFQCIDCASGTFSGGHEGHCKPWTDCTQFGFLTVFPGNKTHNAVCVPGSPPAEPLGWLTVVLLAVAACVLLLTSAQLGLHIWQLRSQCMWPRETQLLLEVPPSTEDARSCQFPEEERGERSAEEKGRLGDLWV
Experiment: flow cytometry on human GITR-CHO cells

- Binder: "hzCC04v5.2 (VHH, sheet prints hzCC04, text hzC04; also called hzC04v5.2) VHH: EVQLLESGGGEVQPGGSLRLSCAASGFTFSTHGMDWFRQAPGKDLEWVSAIQSGGSWTSYASSVKGRFTISRDNAKNTLYLQMNNLRAEDTAVYWCQNRVTRGQGTLVTV"
  EC50 (read off the curve): "~4 nM"
- Binder: "hzCC04v5.3 (VHH, sheet prints hzCC04, text hzC04; also called hzC04v5.3) VHH: EVQLLESGGGEVQPGGSLRLSCAASGFTFSTHGMDWFRQAPGKDLEWVSAIQSGGSWTSYASSVKGRFTISRDNAKNTLYLEMSSLRAEDTAVYWCQNRVTRGQGTLVTV"
  EC50 (read off the curve): "~5 nM"
- Binder: "hzCC04v5.4 (VHH, sheet prints hzCC04, text hzC04; also called hzC04v5.4) VHH: EVQLLESGGGEVQPGGSLRLSCAASGFTFSTHGMDWFRQAPGKDLEWVSAIQSGGSWTSYASSVKGRFTISRDNAKNTLYLQMSSLRPEDTAVYWCQNRVTRGQGTLVTV"
  EC50 (read off the curve): "~4 nM"
- Binder: "hzCC04v5.1 (VHH, sheet prints hzCC04, text hzC04; also called hzC04v5.1) VHH: EVQLLESGGGEVQPGGSLRLSCAASGFTFSTHGMDWFRQAPGKDLEWVSAIQSGGSWTSYASSVKGRFTISRDNAKNTLYLEMNNLKPEDTAVYWCQNRVTRGQGTLVTV"
  EC50 (read off the curve): "~4 nM"
